Reference source: patent US20240041042A1

# Test system: Avena fatua (AVEFA)
# Test description: Post-emergence herbicidal action against AVEFA
# Type: in vivo
# Assay context: 320 g/ha, visual rating about 3 weeks after treatment
For each entry below, report its Post-emergence action against AVEFA in % value.
One number for each entry, in %.

Molecule: O=C(COc1nn(-c2ncccc2F)c(-c2ccc(F)nc2)c1C1CC1)OCC1CCOC1 (stereo not drawn)
Target: Avena fatua (AVEFA)
Post-emergence action against AVEFA in % / %: 90

Molecule: COCCOC(=O)COc1nn(-c2ncccc2C)c(-c2cncc(F)c2)c1Br
Target: Avena fatua (AVEFA)
Post-emergence action against AVEFA in % / %: 90

# next molecule below
Post-emergence action against AVEFA in % reported for this molecule `C[C@@H](Oc1nn(-c2nc(F)ccc2F)c(-c2ccc(F)nc2)c1Cl)C(=O)O` : 80

----------
Would you mind telling me the reported Pre-emergence action against ECHCG in % of each entry?
# Test system: Echinochloa crus-galli (ECHCG)
# Test description: Pre-emergence herbicidal action against ECHCG
# Assay type: in vivo
# Assay context: dosage 320 g/ha
Numbers only, in %.

Examples with their reported Pre-emergence action against ECHCG in % follow.
Molecule: O=C(COc1nn(-c2ccccn2)c(-c2ccc(F)nc2)c1Br)OCC1CCOC1 (centres unmarked)
Unit of measurement: %
Pre-emergence action against ECHCG in %: 100
--
Molecule: C[C@@H](Oc1nn(-c2nc(F)ccc2F)c(-c2cncc(F)c2)c1C1CC1)C(=O)O
Unit of measurement: %
Pre-emergence action against ECHCG in %: 100
--
Molecule: COC(=O)CCOC(=O)C(C)Oc1nn(-c2ccccn2)c(-c2ccc(F)nc2)c1C(F)(F)F (centres unmarked)
Unit of measurement: %
Pre-emergence action against ECHCG in %: 90

// for each molecule in input: emit Pre-emergence action against ECHCG in %
1. COC(=O)CNC(=O)[C@@H](C)Oc1nn(-c2ccccn2)c(-c2cncc(F)c2)c1Cl
2. O=C(O)COc1nn(-c2ccccn2)c(-c2cncnc2)c1Br
3. O=C(O)COc1nn(-c2nc(F)ccc2F)c(-c2cncc(F)c2)c1Br
4. O=C(O)COc1nn(-c2nc(F)ccc2F)c(-c2ccc(F)nc2)c1Br
5. CCOC(=O)CSc1nn(-c2ccccn2)c(-c2cncc(F)c2)c1Br
6. COC(=O)C(C)COC(=O)[C@@H](C)Oc1nn(-c2ccccn2)c(-c2cncc(F)c2)c1Br (some centres unmarked)

Outgoing:
1: 90; 2: 100; 3: 100; 4: 90; 5: 80; 6: 100

----------
# Test system: Zea mays (ZEAMX)
# Assay type: in vivo
# Assay context: crop plant compatibility, 320 g/ha, effect vs untreated controls
Would you mind telling me the reported Post-emergence action against ZEAMX in % of each entry?
Form entry: enter the amount, then its unit.

The following compounds have reported results that may help.
Compound: COC(=O)[C@H](C)NC(=O)COc1nn(-c2ccnc(F)c2)c(-c2ccc(F)nc2)c1Br [III-28]
Post-emergence action against ZEAMX in %: 0%
--
Compound: COc1cccnc1-n1nc(OCC(=O)O)c(Br)c1-c1ccc(F)nc1 [Example I-363]
Post-emergence action against ZEAMX in %: 0%
--
Compound: CCOC(=O)COc1nn(-c2ncccc2OC)c(-c2ccc(F)nc2)c1I [Example I-386]
Post-emergence action against ZEAMX in %: 0%
--
Compound: CCOC(=O)[C@@H](C)Oc1nn(-c2ncccc2F)c(-c2ccnc(F)c2)c1Br [Example I-133]
Post-emergence action against ZEAMX in %: 20%
--
Compound: O=C(O)COc1nn(-c2nc(F)ccc2F)c(-c2ccc(F)nc2)c1Br [Example I-334]
Post-emergence action against ZEAMX in %: 20%
--
Compound: COC(=O)C=CC(C)NC(=O)COc1nn(-c2ccccn2)c(-c2ccc(F)nc2)c1Br (centres unmarked) [Example I-297]
Post-emergence action against ZEAMX in %: 0%
--
Compound: COCCOC(=O)COc1nn(-c2cccnc2C)c(-c2cncc(F)c2)c1Br [II-40]
Post-emergence action against ZEAMX in %: 10%
--
Compound: CCOC(=O)COc1nn(-c2ccnc(F)c2)c(-c2ccc(F)nc2)c1Br [III-01]
Post-emergence action against ZEAMX in %: 0%
--
Compound: CCOC(=O)COc1nn(-c2ncccc2F)c(-c2ccnc(F)c2)c1I [Example I-137]
Post-emergence action against ZEAMX in %: 20%
--
Compound: CC(=O)CNC(=O)COc1nn(-c2ccnc(F)c2)c(-c2ccc(F)nc2)c1Br [III-07]
Post-emergence action against ZEAMX in %: 0%

Provide the reported Post-emergence action against ZEAMX in % of each entry below, same order.
1. C=CCNC(=O)COc1nn(-c2ncccc2F)c(-c2ccc(F)nc2)c1Br [Example I-31]
2. C[C@H](NC(=O)COc1nn(-c2ccnc(F)c2)c(-c2ccc(F)nc2)c1Br)C(=O)O [III-25]

Outgoing:
1. 0%
2. 0%

I would be grateful if you could provide Post-emergence action against ZEAMX in % for each of the following entries.
1. COC(=O)COc1nn(-c2ncccc2OC)c(-c2ccc(F)nc2)c1Cl [Example I-346]
2. CCOC(=O)COc1nn(-c2cccnc2C)c(-c2ccc(F)nc2)c1Br [II-46]
3. O=C(CSc1nn(-c2ccccn2)c(-c2cncc(F)c2)c1Br)NS(=O)(=O)c1ccccc1 [Example I-200]
4. C[C@@H](Oc1nn(-c2ncccc2F)c(-c2ccc(F)nc2)c1Br)C(=O)O [Example I-10]
5. COC(=O)CNC(=O)COc1nn(-c2cccc(C)n2)c(-c2ccc(F)nc2)c1Br [Example I-357]

Outgoing:
0%
20%
0%
20%
10%

----------
# System: Amaranthus retroflexus (AMARE)
# Test description: Post-emergence herbicidal action against AMARE
# Assay type: in vivo
# Assay context: 80 g/ha, visual rating about 3 weeks after treatment vs untreated controls (100% = plants have died, 0% = like control plants)
Measure name: Post-emergence action against AMARE in % (%)
Numbers only, in %.

Compound: COC(=O)[C@@H](C)Oc1nn(-c2ncccc2F)c(-c2cncc(F)c2)c1I
Post-emergence action against AMARE in % [%]: 90

Compound: Cc1cccnc1-n1nc(OCC(=O)O)c(Br)c1-c1cncc(F)c1
Post-emergence action against AMARE in % [%]: 80

Compound: CCOC(=O)C(C)Oc1nn(-c2ccccn2)c(-c2ccc(F)nc2)c1Br (stereo not drawn)
Post-emergence action against AMARE in % [%]: 80

Provide the reported Post-emergence action against AMARE in % of each entry below, same order.
1. CCOC(=O)CNC(=O)COc1nn(-c2ncccc2F)c(-c2ccc(OC)nc2)c1Br
2. COC(=O)CNC(=O)COc1nn(-c2ccccn2)c(-c2ccc(F)nc2)c1Br
3. CCOC(=O)COc1nn(-c2ccccn2)c(-c2ccc(F)nc2)c1Cl [Example I-100]
4. COC(=O)COc1nn(-c2ncccc2C)c(-c2cncc(F)c2)c1Br

Outgoing:
1: 80; 2: 90; 3: 90; 4: 90

Answer for every listed entry: what is its Post-emergence action against AMARE in %? The entries follow.
1. O=C(O)COc1nn(-c2ccccn2)c(-c2ccc(F)nc2)c1Cl
2. CCOC(=O)COc1nn(-c2ccccn2)c(-c2ccc(F)nc2)c1C1CC1
3. O=C(O)COc1nn(-c2ncccc2C(F)(F)F)c(-c2ccc(F)nc2)c1Cl
4. CCOC(=O)COc1nn(-c2nc(F)ccc2F)c(-c2cncc(F)c2)c1Br
5. C[C@@H](Oc1nn(-c2ccccn2)c(-c2cncc(F)c2)c1Br)C(=O)O
6. Cc1cccc(-n2nc(OCC(=O)O)c(Cl)c2-c2ccc(F)nc2)n1

Outgoing:
1. 80
2. 80
3. 90
4. 80
5. 90
6. 80

----------
# Test system: Polygonum convolvulus (POLCO)
# Test description: Pre-emergence herbicidal action against POLCO
# Type: in vivo
# Assay context: dosage 80 g/ha
Measure name: Pre-emergence action against POLCO in % (%)
Numbers only, in %.

Molecule: CCOC(=O)CCNC(=O)COc1nn(-c2ncccc2F)c(-c2ccc(OC)nc2)c1Br
Pre-emergence action against POLCO in % / %: 80
//
Molecule: COC(=O)C(C)NC(=O)[C@@H](C)Oc1nn(-c2ccccn2)c(-c2ccc(F)nc2)c1Cl (some centres unmarked)
Pre-emergence action against POLCO in % / %: 80
//
Molecule: O=C(O)COc1nn(-c2ncccc2F)c(-c2cncc(F)c2)c1C1CC1
Pre-emergence action against POLCO in % / %: 90
//
Molecule: COC(=O)CNC(=O)[C@@H](C)Oc1nn(-c2ccccn2)c(-c2ccc(F)nc2)c1Cl
Pre-emergence action against POLCO in % / %: 90
//
Molecule: O=C(O)COc1nn(-c2nc(F)ccc2F)c(-c2ccc(F)nc2)c1Cl
Pre-emergence action against POLCO in % / %: 80

Record Pre-emergence action against POLCO in % per entry; entries follow.
1. C[C@@H](Oc1nn(-c2nc(F)ccc2F)c(-c2ccc(F)nc2)c1C1CC1)C(=O)O
2. CN(C)S(=O)(=O)NC(=O)COc1nn(-c2ncccc2F)c(-c2ccc(F)nc2)c1Br
3. CCOC(=O)[C@@H](C)Oc1nn(-c2nc(F)ccc2F)c(-c2ccc(F)nc2)c1Br

Outgoing:
1: 80; 2: 80; 3: 80
